system: KYSE-450; assay: Antiproliferative activity against human KYSE-450 cells assessed as cell viability measured after 48 hrs by CCK8 assay; assay type: functional, cell-based; settings: KYSE-450, 48 h
VALUE KIND: IC50 (nM)
Write down the numeric answer in nM and omit the unit.

For the molecule `COc1ccc(CN(C(=O)CSC(=S)N2CCN(C(=O)OC(C)(C)C)CC2)c2cc(OC)c(OC)c(OC)c2)cc1O` , what IC50 is on record? 76

---

tested on: KYSE-30; test: Antiproliferative activity against human KYSE-30 cells assessed as cell viability measured after 48 hrs by CCK8 assay; assay type: functional, cell-based; conditions: KYSE-30, 48 h
VALUE KIND: IC50 (nM)
Hi! Could you send only the number? It should be in nM, unit omitted.

Look up IC50 for this compound: `COc1ccc(CN(C(=O)CSC(=S)N2CCN(C(=O)OC(C)(C)C)CC2)c2cc(OC)c(OC)c(OC)c2)cc1O` 69
